- experiment: Solubility of raw material (Table 1)
- Assay type: physicochemical
- condition: 2% CIP100 aqueous solution, aqueous with cosolvent or surfactant or cyclodextrin; 2% CIP100 aqueous soln.; read-out: Solubility in 2% CIP100 aqueous soln.
measured.property: solubility
Number plus unit, in that order.

Give the measured solubility of O=C(CCCCCCC(=O)Nc1ccccc1)NO [Suberoylanilide hydroxamic acid (SAHA), N-hydroxy-N′-phenyloctanediamide] .
11.3 mg/mL

* * *

- experiment: in vivo
- condition: female, CD1 nu/nu, mouse, ip
measured.property: MTD

Give the measured MTD of O=C(CCCCCCC(=O)Nc1ccccc1)NO [Suberoylanilide hydroxamic acid (SAHA), N-hydroxy-N′-phenyloctanediamide] .
150 mg/kg
